B1: DNA-binding protein HU 1, P08821 (parent)
chain: MNKTELINAVAEASELSKKDATKAVDSVFDTILDALKNGDKIQLIGFGNFEVRERSARKGRNPQTGEEIEIPASKVPAFKPGKALKDAVAGK

variants of: B1; conditions: Bacillus subtilis (strain 168); pH 7; Thermal; CD; Sodium phosphate 5 mM; NaCl 0.2 M; reversible: yes; whole UniProt chain shown
As shown below, each of these variants has a reported change of melting temperature, mutant - wild type (higher = more stable) value.
The number alone won't do; follow it with the unit.

A selection of reference data follows.
variantSpec: D34E N38K
result: 3.5 °C
//
variantSpec: E15G S27A D34E N38K I42V
result: 22.7 °C

Qu. What value of measured change of melting temperature, mutant - wild type (higher = more stable) is listed for E15G ?
Ans. 11.8 °C

Qu. What value of measured change of melting temperature, mutant - wild type (higher = more stable) is listed for S27A ?
Ans. 5.6 °C

Qu. What value of measured change of melting temperature, mutant - wild type (higher = more stable) is listed for I42V ?
Ans. 4 °C
